Each recorded value in this set is attributed to PubChem BioAssay.

Quick reference: nuclei count of the listed items.
Assay: endothelial E-selectin expression blockers – imaging, HUVEC, immunofluorescence, MLSMR starter and 10KST1 sets, primary screen (AID 487);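 further: 100% = median nuclei count of all wells on the same plate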
Conditions: HUVEC TNFalpha-induced E-selectin immunofluorescence imaging, at 2 µM; measured here: cell number, toxicity
Return type: number; implicit unit %.

| compound | nuclei count, % |
| --- | --- |
| CCCCNC(=O)Nc1ccc(C(O)(C(=O)OCC)C(F)(F)F)cc1 (stereo not drawn) | 173 |

nuclei count lookup needed for Nc1ncc(P(=S)(N2CCOCC2)N2CCOCC2)s1 , thanks.
169

Bench note: what nuclei count did CCN(CC)c1ccc(N=Cc2c(O)n(-c3cc(OC)ccc3OC)c(=O)[nH]c2=O)cc1 show?
172

Look up nuclei count: CC(=NCc1cccnc1)c1c(O)n(Cc2ccccc2)c(=O)[nH]c1=O
126

Look up nuclei count for this compound: N#Cc1ccccc1Cn1cc(C(=O)C2CC2)c2ccccc21
107

What value of nuclei count has been reported for the following compound? COc1ccc(C2SCC(=O)Nc3c2c(=O)[nH]n3C2CCCCC2)cc1 (stereo not drawn)
138

For the compound CN1CCc2nc(SCC(=O)OC(C)(C)C)c(C#N)cc2C1 , what nuclei count is on record?
178
